# System: Chordin-like protein 2 (CHRDL2)
# assay-protocol: compounds binding chordin-like 2 – biochemical, small-molecule microarray, 635 nm fluorescence, primary screen (AID 1126);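 further: printed compound slides probed with Chrdl2 protein at 4 µg/mL for 1 h at 4 C; score merges 667 nm emission intensity with signal to noise over three replicate slides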
# measurement-setup: fluorescence 635 nm, higher = more signal

compound | measurement-target | composite z-score
COc1ccc(C(=O)Nc2ccc3c(c2)[C@@]2(O[C@H](CCO)[C@@H]([Si](C)(C)c4ccc(OC)cc4)[C@@H]2C)C(=O)N3Cc2ccccc2)cc1 | Chordin-like protein 2 (CHRDL2) | 0.268
CCCC[C@H]1C[C@@H]1[C@@H]1N(C(C)=O)[C@H](c2cccc(OC)c2)CC12CC2 | Chordin-like protein 2 (CHRDL2) | -1
COC(=O)C(CC#Cc1ccc2c(c1)[C@]1(C(=O)N2)[C@H](C(=O)N2CCc3cc(OC)c(OC)cc3C2)[C@H]2C(=O)O[C@H](c3ccccc3)[C@H](c3ccccc3)N2[C@@H]1c1ccccc1OCCO)C(=O)OC | Chordin-like protein 2 (CHRDL2) | 0.463
O=C(NCCN1CCOCC1)[C@@H]1c2ccccc2C(=O)N(Cc2ccc(OC(F)(F)F)cc2)[C@H]1c1ccc(CO)cc1 | Chordin-like protein 2 (CHRDL2) | -1.49
CC(C)N1C(=O)c2ccccc2[C@@H](C(=O)NCC(F)(F)F)[C@@H]1c1ccc(CO)cc1 | Chordin-like protein 2 (CHRDL2) | -0.474
N#Cc1ccc(C(O)C2C=CC3C(=O)NC(=O)C3N2Nc2ccc(Cl)cc2Cl)cc1 (stereo not given) | Chordin-like protein 2 (CHRDL2) | -0.581
Cc1ccccc1C(O)C1C=CC2C(=O)N(c3ccccc3)C(=O)C2N1Nc1ccccc1 (stereo not given) | Chordin-like protein 2 (CHRDL2) | -0.147
O=C1C=C(c2ccccc2)C(=O)C2=C1CC([C@H]1Oc3ccccc3S(=O)(=O)N3CCC[C@@H]13)=CC2 | Chordin-like protein 2 (CHRDL2) | 0.121
[N-]=[N+]=Nc1ccccc1[C@@H]1OC(c2ccc(OCCCO)cc2)=N[C@]1(Cc1ccccc1)C(=O)NCCN1CCOCC1 | Chordin-like protein 2 (CHRDL2) | -0.377
C=C(CCCC)/C(=C/C[C@H](OC(C)=O)c1cccc(OCCO)c1)c1cnc2ccccc2c1 | Chordin-like protein 2 (CHRDL2) | 0.466
O=C1O[C@H](c2ccccc2)[C@H](c2ccccc2)N2[C@H]1[C@@H](C(=O)O)[C@]1(C(=O)Nc3ccc(C#CCCO)cc31)[C@H]2c1ccc(OCCO)cc1 | Chordin-like protein 2 (CHRDL2) | 1.11
COCCOC(=O)N1C(=O)[C@@]2(c3ccccc31)[C@H](c1ccc(O)cc1)N1[C@H](c3ccccc3)[C@H](c3ccccc3)OC(=O)[C@H]1[C@@H]2C(=O)N1CCCCCCC1 | Chordin-like protein 2 (CHRDL2) | 1.58
O=C1N(CCS(=O)(=O)c2ccccc2)c2ccccc2C[C@]12N=C(c1ccc(OCCCO)cc1)O[C@@H]2c1ccccc1 | Chordin-like protein 2 (CHRDL2) | 1.25
CCCCCCc1nc(-c2ccc(-c3ccc(Cl)c(Cl)c3)o2)cc2c1[Si](C(C)C)(C(C)C)OC2 | Chordin-like protein 2 (CHRDL2) | -0.834
O=C1O[C@H](Cc2ccccc2)[C@@H]2[C@H]3C=CCCC=C3CN2[C@H]1Cc1ccc(O)cc1 | Chordin-like protein 2 (CHRDL2) | -0.278
COc1ccc(C(=O)Nc2cccc(CN3C(=O)[C@@]4(O[C@@H](CC(=O)N5CCC[C@H]5CO)[C@H]([Si](C)(C)c5ccc(OC)cc5)[C@H]4C)c4ccccc43)c2)cc1 | Chordin-like protein 2 (CHRDL2) | 0.862
CCCNC(=O)[C@@]1(c2ccc([N+](=O)[O-])cc2)CC(=O)N(C(C)C)[C@@H]1c1ccc(CO)cc1 | Chordin-like protein 2 (CHRDL2) | -1.54
C=CCC(OC(C)=O)[C@@H]1[C@@H](N(Cc2cccc3ccccc23)C(=O)c2ccc(-c3ccccc3)cc2)c2cc(OCCCO)ccc2N1C(=O)Cc1ccc2ccccc2c1 (stereo not given in full) | Chordin-like protein 2 (CHRDL2) | 0.0624
COc1ccc(C(=O)Nc2cccc(CN3C(=O)[C@]4(O[C@H](CC(=O)N5Cc6ccccc6C[C@H]5CO)[C@@H]([Si](C)(C)c5ccc(OC)cc5)[C@@H]4C)c4ccccc43)c2)cc1 | Chordin-like protein 2 (CHRDL2) | 1.38
CCCC[C@H]1OB(O)C[C@H]2C1=C(COc1ccccc1)C[C@H]1C(=O)C=CC(=O)[C@H]12 | Chordin-like protein 2 (CHRDL2) | 0.647

----------
z-score for assorted compounds
# assay-protocol: resazurin metabolic signal in A549 cells – cell-based, resazurin fluorescence, 24 h, PK04 Diversity Set, profiling panel (AID 1171); further: test concentration not given here
# measurement-setup: A549 viability, higher = more signal, called active from +8 up or from −8 down

compound | z-score
CC(C)(C)N1CC=CC23O[C@@H]4C=CCOC(=O)[C@@H]4[C@H]2C(=O)N(CCO)[C@@H]3C1=O (some centres undefined) | -0.465
CN1C(=O)C2C=CC(C(O)c3ccc(-c4ccccc4)s3)N(NC(=O)OC(C)(C)C)C2C1=O (centres undefined) | 0.117
CC(C)c1nc2cc(Br)ccc2c(=O)o1 | 0.0924
COc1ccc(C(O)C2C=CC3C(=O)N(C)C(=O)C3N2N(c2ccccc2)c2ccccc2)cc1 (centres undefined) | -0.691

----------
# Test system: wheat germ agglutinin (Triticum aestivum), Alexa647-labelled
# assay-protocol: Alexa647-WGA lectin binding to printed small molecules – biochemical, small-molecule microarray, 635/667 nm fluorescence, artefact control for SMM control-protein annotation, profiling panel (AID 1140);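 further: score merges 667 nm feature emission with signal to noise over triplicate slides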
# measurement-setup: WGA-A647 binding, 635 nm fluorescence, higher = more signal
composite z-score of 0.07 or higher: t. Under 0.07: f.

molecule | measurement-target | assigned-label
COC(=O)[C@@]1(Cc2ccc(F)cc2)[C@H]2c3cc(C(=O)N(C)C)n(CCc4ccc(O)c(O)c4)c3C[C@H]2CN1C(=O)c1ccccc1 | wheat germ agglutinin (Triticum aestivum), Alexa647-labelled | t
CN(C)c1ccc(C(O)C2C=CC3C(=O)N(Cc4ccccc4)C(=O)C3N2n2cnnc2)cc1 (stereo unspecified) | wheat germ agglutinin (Triticum aestivum), Alexa647-labelled | t
O=C(NCCN1CCOCC1)[C@@H]1c2ccccc2C(=O)N(Cc2ccccc2C(F)(F)F)[C@H]1c1ccc(CO)cc1 | wheat germ agglutinin (Triticum aestivum), Alexa647-labelled | t
C=C(COC)/C(=C/C[C@@H](OC(C)=O)c1ccccc1OCCO)c1cnc2ccccc2c1 | wheat germ agglutinin (Triticum aestivum), Alexa647-labelled | t
C[C@@H]1NC(=O)C([C@@H](C)OCc2ccccc2)NC(=O)[C@@]23C(=O)N[C@@H](Cc4ccccc4)C2[C@H](C)[C@@]2(C)O[C@H]2C3/C=C/C/C=C\CNC1=O (stereo partly specified) | wheat germ agglutinin (Triticum aestivum), Alexa647-labelled | f
Cc1ccc(N2C(=O)c3ccccc3[C@](C)(C(=O)NCCCN(C)C)[C@@H]2c2ccc(CO)cc2)nc1 | wheat germ agglutinin (Triticum aestivum), Alexa647-labelled | f
C=CC[C@@]12N=C(c3ccc(OCCCO)cc3)O[C@@H]1c1ccccc1N(CCC)C2=O | wheat germ agglutinin (Triticum aestivum), Alexa647-labelled | t
COC(=O)[C@@]1(Cc2ccc(OC)cc2)[C@H]2c3cc(C(=O)N4CCCC4)n(CCn4cc([N+](=O)[O-])nc4C)c3C[C@H]2CN1C(=O)c1ccccc1 | wheat germ agglutinin (Triticum aestivum), Alexa647-labelled | t
[N-]=[N+]=NCc1ccccc1[C@@H]1OC(c2ccc(OCCCO)cc2)=N[C@]1(Cc1ccccc1N=[N+]=[N-])C(=O)NCC(O)CO (stereo partly specified) | wheat germ agglutinin (Triticum aestivum), Alexa647-labelled | t
CN(C)CCCC[C@@H]1NC(=O)[C@@H]2C[C@H](C(=O)NCCCCCCNC(=O)CS)[C@H](c3ccc(O)cc3)N2C1=O | wheat germ agglutinin (Triticum aestivum), Alexa647-labelled | f
CN(C)C(=O)[C@@]1(Cc2ccccc2CN=[N+]=[N-])COC(c2ccc(OCCCO)cc2)=N1 | wheat germ agglutinin (Triticum aestivum), Alexa647-labelled | t

----------
# assay-protocol: inhibition of PAO1 biofilm formation – strain PAO1, LB-PBS medium, absorbance 600 nm, primary screen (AID 1176); further: test concentration not given here
# measurement-setup: P. aeruginosa PAO1 growth/biofilm, A600, 12 h; higher = more signal
z-score for assorted compounds

compound | z-score
CN1C(=O)[C@@H]2[C@@H](CC(COc3ccccc3)=C3[C@@H](CCc4ccccc4)OB(O)C[C@@H]32)C1=O | 0.2
CO[C@H]1O[C@H](CO)[C@@H](OC(=O)Nc2ccc3c(c2)OCO3)[C@H](OC(=O)Nc2ccccc2-c2ccccc2)[C@H]1OC(=O)Nc1ccccc1-c1ccccc1 | 0.553
COCCOC(=O)N1C(=O)[C@@]2(c3cc(C#CCCO)ccc31)[C@H](c1ccc(OCCO)cc1)N1[C@H](c3ccccc3)[C@H](c3ccccc3)OC(=O)[C@H]1[C@@H]2C(=O)N1CCCCCCC1 | 1.68
C=CCOC(=O)[C@H]1[C@@H]2C(=O)O[C@@H](c3ccccc3)[C@@H](c3ccccc3)N2[C@@H](c2ccc(OCCOC(=O)[C@H]3C[C@H]4C(=O)N[C@@H](CC(C)C)C(=O)N4[C@H]3c3ccc(O)cc3)cc2)[C@]12C(=O)Nc1ccccc12 | 2.65
COc1ccc(C(=O)Nc2cccc(CN3C(=O)[C@@]4(O[C@@H](CC(=O)N5CCC[C@H]5CO)[C@H]([Si](C)(C)c5ccc(OC)cc5)[C@H]4C)c4ccccc43)c2)cc1 | 1.03
Cc1ccc(S[C@]2(C(=O)NCCCN(C)C)CC(=O)N(Cc3ccccc3C(F)(F)F)[C@@H]2c2ccc(CO)cc2I)cc1 | -0.0065
COc1ccc(C(=O)Nc2ccc3c(c2)[C@@]2(O[C@H](CCO)[C@@H]([Si](C)(C)c4ccc(OC)cc4)[C@@H]2C)C(=O)N3Cc2ccccc2)cc1 | 0.249
COc1cc(CO)cc(I)c1O[C@H]1C=C(C(=O)NCCO)C[C@@H](NC2CCCCCC2)[C@@H]1O | -0.896
O=C1OCCC=C[C@H]2OC34C=CCN(c5ccc6ccccc6c5)C(=O)[C@H]3N(CCO)C(=O)[C@@H]4C12 (stereo partly specified) | 0.345
CCOC(=O)C[C@H]1[C@H](OC(=O)Cc2ccc3c(c2)OCO3)[C@@H](NC(=O)Cc2ccc(OC)cc2)c2cc(OCCCO)ccc2N1C(=O)Cc1ccc(OC)cc1 | 0.501
C=CCC(OC(C)=O)[C@@H]1[C@@H](N(Cc2ccc(-c3cccc(C(F)(F)F)c3)o2)C(=O)Cc2ccc(F)cc2)c2cc(OCCCO)ccc2N1C(=O)Cc1ccc2ccccc2c1 (stereo partly specified) | 1.13
O=C(NCC(O)CO)C1N=C(c2ccc(OCCCO)cc2)N(c2ccccc2)O1 (stereo unspecified) | -1.41
COC(=O)[C@@]1(Cc2ccc(OC)cc2)[C@H]2c3cc(C(=O)N4CCCC4)n(Cc4c(CO)[nH]cc(C)c4=O)c3C[C@H]2CN1C(=O)c1ccccc1 | 0.548
CCCC#C[Si](O[C@H](CC)c1cn(Cc2ccccc2)nn1)(C(C)C)C(C)C | 0.0763
COCCCN1C(=O)[C@@]2(c3ccc([N+](=O)[O-])cc3)CC(=O)N(CC34CC5CC(CC(C5)C3)C4)[C@@H]2c2ccc(CO)cc21 | 0.792
CC1CC/C=C\[C@H]2OC34C=CCN(CCN5CCOCC5)C(=O)[C@H]3N(CCCO)C(=O)[C@@H]4C2C(=O)O1 (stereo partly specified) | 0.233
